FYI, the data here is from patent US9340506B2.

Assay Target: purified human recombinant GK (Homo sapiens (Human))
Sequence (P35557 whole entry): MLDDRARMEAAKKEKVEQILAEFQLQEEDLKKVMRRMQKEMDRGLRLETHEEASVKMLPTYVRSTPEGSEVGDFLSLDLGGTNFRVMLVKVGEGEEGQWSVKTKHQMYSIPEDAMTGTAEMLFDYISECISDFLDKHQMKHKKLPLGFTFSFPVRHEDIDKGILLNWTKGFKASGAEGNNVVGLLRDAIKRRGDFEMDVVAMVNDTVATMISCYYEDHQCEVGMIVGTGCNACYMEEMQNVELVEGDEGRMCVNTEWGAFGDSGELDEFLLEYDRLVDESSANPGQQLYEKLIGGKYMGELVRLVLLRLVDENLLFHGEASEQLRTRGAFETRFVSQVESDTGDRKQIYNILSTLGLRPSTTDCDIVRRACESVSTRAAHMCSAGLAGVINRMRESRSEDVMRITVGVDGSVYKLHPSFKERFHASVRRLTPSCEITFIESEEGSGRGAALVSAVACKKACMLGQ
Experimental Protocol: Glucokinase activity assay (coupled enzymatic, G6PD/NADH absorbance at 340 nm)
Test Context: EC50 of % change in S0.5 of glucokinase for glucose, sigmoidal fit; read-out: EC50 (with respect to % ΔS0.5)
pEC50: −log10 of the molar value.
Listed here: items and their measured pEC50.

Molecule	pEC50
Cc1cc(Oc2cnc(NC(=O)C(O[C@@H]3CCOC3)c3ccc(S(=O)(=O)C4CC4)cc3)s2)ccc1C(=O)O (single isomer, unassigned; (+)) [Example G14A]	6.42
O=C(O)c1ccc(NC(=O)C(Oc2ccc(Cl)cc2)c2ccc(S(=O)(=O)C3CC3)cc2)nc1 (stereo not drawn)	6.13
Cc1ccc(Oc2cnc(NC(=O)C(O[C@@H]3CCOC3)c3ccc(S(=O)(=O)C4CC4)cc3)s2)cc1C(=O)O (single isomer, unassigned; (+)) [Example G11A]	6.24
O=C(O)C1CCc2nc(NC(=O)C(OC3CCOCC3)c3ccc(S(=O)(=O)C4CC4)cc3)sc2C1 (stereo not drawn)	5.43
O=C(O)Cc1nc(NC(=O)C(OC2CCOCC2)c2ccc(S(=O)(=O)N3CCCCC3)cc2)sc1Cl (single isomer, unassigned; (-)) [Example G3B]	6.38
Cc1cc(Oc2cnc(NC(=O)C(Oc3ccc(F)cc3F)c3ccc(S(=O)(=O)C4CC4)cc3)s2)ccc1C(=O)O (stereo not drawn)	7.03
O=C(Nc1ncc(Oc2cccc(CO)c2)s1)C(OC1CCOCC1)c1ccc(S(=O)(=O)C2CC2)cc1 (stereo not drawn) [Example D3]	6.85
O=C(O)c1cccc(Oc2cnc(NC(=O)C(OC3CCOCC3)c3ccc(S(=O)(=O)C4CC4)cc3)s2)c1 (single isomer, unassigned; (+))	6.72
O=C(O)c1cc(Oc2cnc(NC(=O)C(OC3CCOCC3)c3ccc(S(=O)(=O)C4CC4)cc3)s2)ccc1Cl (stereo not drawn)	6.32
O=C(O)c1cc(Oc2cnc(NC(=O)C(OC3CCOCC3)c3ccc(S(=O)(=O)C4CC4)cc3)s2)ccn1 (stereo not drawn)	6.24
O=C(Nc1ncc(Oc2cccc(CO)c2)s1)C(OC1CCOCC1)c1ccc(S(=O)(=O)C2CC2)cc1 (single isomer, unassigned; (+)) [Example G20A]	7.19
O=C(Nc1nc2ccc(C(O)CO)nc2s1)C(OC1CCOCC1)c1ccc(S(=O)(=O)C2CC2)cc1 (stereo not drawn) [Example E2]	5.82
COc1cc(Oc2cnc(NC(=O)C(OC3CCOCC3)c3ccc(S(=O)(=O)C4CC4)cc3)s2)ccc1C(=O)O (single isomer, unassigned; (+))	6.57
O=C(O)c1cccc(Oc2cnc(NC(=O)C(OC3CCOCC3)c3ccc(S(=O)(=O)C4CCCC4)nc3)s2)c1 (single isomer, unassigned; (+)) [Example G27A]	6.89
O=C(O)c1cc(-c2ccc(Oc3cnc(NC(=O)C(OC4CCOCC4)c4ccc(S(=O)(=O)C5CC5)cc4)s3)cc2)no1 (stereo not drawn)	6.66
O=C(Nc1ncc(-n2cccn2)s1)C(Oc1ccc(F)cc1F)c1ccc(S(=O)(=O)C2CC2)cc1 (single isomer, unassigned; (+)) [Example G4A]	6.59
O=C(O)c1cncc(Oc2cnc(NC(=O)C(OC3CCOCC3)c3ccc(S(=O)(=O)C4CC4)cc3)s2)c1 (single isomer, unassigned; (+)) [Example G22A]	6.54
O=C(Nc1ncc(-n2cccn2)s1)C(Oc1ccc(F)cc1F)c1ccc(S(=O)(=O)C2CC2)cc1 (single isomer, unassigned; (-)) [Example G4B]	6.19
CCOC(=O)c1cccc(Oc2cnc(NC(=O)C(OC3CCOCC3)c3ccc(S(=O)(=O)C4CC4)cc3)s2)c1 (single isomer, unassigned; (+)) [Example G19A]	7.00
Cc1cc(Oc2cnc(NC(=O)C(OC3CCOCC3)c3ccc(S(=O)(=O)C4CC4)cc3)s2)ccc1C(=O)O (single isomer, unassigned; (+)) [Example G1A]	7.06
O=C(O)c1cccc(Oc2cnc(NC(=O)C(O[C@H]3CCOC3)c3ccc(S(=O)(=O)C4CC4)cc3)s2)c1 (single isomer, unassigned; (+)) [Example G25A]	6.70
COc1ccc2nc(NC(=O)C(OC3CCOCC3)c3ccc(S(=O)(=O)N4CCOCC4)cc3)sc2n1 (stereo not drawn)	6.18
O=C(O)Cc1nc(NC(=O)C(OC2CCOCC2)c2ccc(S(=O)(=O)N3CCCCC3)cc2)sc1Cl (stereo not drawn) [Example B-12]	5.95
O=C(O)c1cccc(Oc2cnc(NC(=O)C(OC3CCOCC3)c3ccc(S(=O)(=O)C4CCCC4)cc3)s2)c1 (single isomer, unassigned; (+)) [Example G26A]	6.74
